- Measurement target: T1, human GIP receptor (human, UniProt P48546 22-466)
- T1 sequence (looked up): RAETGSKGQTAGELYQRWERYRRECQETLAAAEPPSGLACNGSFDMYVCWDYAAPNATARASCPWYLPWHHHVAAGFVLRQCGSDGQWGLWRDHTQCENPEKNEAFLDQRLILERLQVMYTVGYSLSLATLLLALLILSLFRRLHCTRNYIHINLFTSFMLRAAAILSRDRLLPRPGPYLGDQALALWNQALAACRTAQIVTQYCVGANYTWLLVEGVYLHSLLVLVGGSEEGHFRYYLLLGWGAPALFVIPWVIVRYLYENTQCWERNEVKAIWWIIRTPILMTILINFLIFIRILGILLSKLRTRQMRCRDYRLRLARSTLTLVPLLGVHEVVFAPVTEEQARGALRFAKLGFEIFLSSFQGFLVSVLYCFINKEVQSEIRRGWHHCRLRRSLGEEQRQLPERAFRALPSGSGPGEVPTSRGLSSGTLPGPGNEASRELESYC
- Assay method text: cell-based or functional assay
Bridge positions count the residues as written; N and C are the ends. Square brackets hold non-standard residues; d marks the D form. Ends that are not written are not given here. * marks the point of attachment. Acetyl(2-(4-imidazolyl)) = O=C(Cc1c[nH]cn1)*; Aib = CC(C)(N)C(=O)O
Measure: In vitro activity compared to native-type peptide (%), vs GIP

[
  {
    "Binder": "H[Aib]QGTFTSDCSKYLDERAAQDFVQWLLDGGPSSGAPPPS [triple agonist of SEQ ID NO: 25]",
    "Units symbol": "%",
    "Relation symbol": "<",
    "Recorded value": 0.1
  },
  {
    "Binder": "H[Aib]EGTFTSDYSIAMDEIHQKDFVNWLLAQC (bridge 16-20) [triple agonist of SEQ ID NO: 53]",
    "Units symbol": "%",
    "Relation symbol": "=",
    "Recorded value": 1.3
  },
  {
    "Binder": "H[Aib]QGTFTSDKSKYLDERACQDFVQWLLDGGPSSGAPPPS [triple agonist of SEQ ID NO: 40]",
    "Units symbol": "%",
    "Relation symbol": "<",
    "Recorded value": 0.1
  },
  {
    "Binder": "H[Aib]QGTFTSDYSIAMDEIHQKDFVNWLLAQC (bridge 16-20) [triple agonist of SEQ ID NO: 55]",
    "Units symbol": "%",
    "Relation symbol": "=",
    "Recorded value": 2.4
  },
  {
    "Binder": "{Acetyl(2-(4-imidazolyl))}-[Aib]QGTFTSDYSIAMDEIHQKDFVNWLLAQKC (bridge 15-19) [triple agonist of SEQ ID NO: 92]",
    "Units symbol": "%",
    "Relation symbol": "=",
    "Recorded value": 0.4
  },
  {
    "Binder": "{Acetyl(2-(4-imidazolyl))}-[Aib]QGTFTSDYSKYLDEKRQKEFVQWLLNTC (bridge 15-19) [triple agonist of SEQ ID NO: 81]",
    "Units symbol": "%",
    "Relation symbol": "<",
    "Recorded value": 0.1
  },
  {
    "Binder": "H[Aib]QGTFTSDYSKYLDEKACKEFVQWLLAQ (bridge 16-20) [triple agonist of SEQ ID NO: 31]",
    "Units symbol": "%",
    "Relation symbol": "=",
    "Recorded value": 2.4
  },
  {
    "Binder": "H[Aib]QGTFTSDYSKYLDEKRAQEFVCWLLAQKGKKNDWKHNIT [triple agonist of SEQ ID NO: 28]",
    "Units symbol": "%",
    "Relation symbol": "<",
    "Recorded value": 0.1
  },
  {
    "Binder": "H[Aib]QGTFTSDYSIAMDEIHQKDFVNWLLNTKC (bridge 16-20) [triple agonist of SEQ ID NO: 35]",
    "Units symbol": "%",
    "Relation symbol": "=",
    "Recorded value": 1.3
  },
  {
    "Binder": "Y[Aib]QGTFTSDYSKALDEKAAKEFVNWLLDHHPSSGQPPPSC (bridge 16-20) [triple agonist of SEQ ID NO: 98]",
    "Units symbol": "%",
    "Relation symbol": "=",
    "Recorded value": 47.1
  },
  {
    "Binder": "Y[Aib]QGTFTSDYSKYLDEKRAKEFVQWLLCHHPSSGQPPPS (bridge 16-20) [triple agonist of SEQ ID NO: 95]",
    "Units symbol": "%",
    "Relation symbol": "<",
    "Recorded value": 0.1
  }
]
